Target: D(3) dopamine receptor (Homo sapiens, UniProt P35462)
Sequence (P35462 whole entry): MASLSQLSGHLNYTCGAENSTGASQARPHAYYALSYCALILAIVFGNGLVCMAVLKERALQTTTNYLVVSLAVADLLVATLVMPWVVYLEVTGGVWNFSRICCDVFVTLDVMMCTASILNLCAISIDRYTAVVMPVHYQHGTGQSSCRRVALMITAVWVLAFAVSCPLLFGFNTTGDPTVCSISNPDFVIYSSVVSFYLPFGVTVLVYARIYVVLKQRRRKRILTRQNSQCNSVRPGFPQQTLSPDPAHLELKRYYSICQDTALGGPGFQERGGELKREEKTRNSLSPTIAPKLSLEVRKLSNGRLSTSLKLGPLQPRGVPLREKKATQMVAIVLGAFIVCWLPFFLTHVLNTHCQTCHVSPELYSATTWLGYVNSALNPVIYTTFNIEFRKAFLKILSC
Experiment: DRUGMATRIX: Dopamine D3 radioligand binding (ligand: [3H] Spiperone)
Format: cell membranes, CHO, Membrane
Settings: read-out: IC50
Parameter IC50: see the listing below.
recorded metric: IC50 (nM)

> print(dat)
                                   compound  measurement.units  quantitative.result
1                CCN(CC)C(=S)SSC(=S)N(CC)CC                 nM                 1080
2                  Clc1cc(Cl)c(OCC#CI)cc1Cl                 nM                  488
3  c1ccc2sc(SSc3nc4ccccc4s3)nc2c1 [BENZOTHIAZYL DISULFIDE]                 nM                  851
4  CC[C@H](C)[C@@H](CO[C@@H](Cc1ccccc1)C(=O)N[C@@H](CCS(C)(=O)=O)C(=O)OC(C)C)NC[C@@H](N)CS                 nM                   28
5  COc1ccccc1OCCNCC(O)COc1cccc2[nH]c3ccccc3c12 (centres undefined)                 nM                  577
6  CC1(COc2ccc(CC3SC(=O)NC3=O)cc2)CCCCC1 (centres undefined)                 nM                26700
7  CCN(CC)CCNC(=O)c1cc(Cl)c(N)cc1OC [METOCLOPRAMIDE]                 nM                  200
8  CC(CN1c2ccccc2Sc2ccccc21)N(C)C (centres undefined)                 nM                  559
9  CCOC(=O)C1=C(C)NC(C)=C(C(=O)OCC)C1c1ccccc1/C=C/C(=O)OC(C)(C)C                 nM                 6170

====

Molecular target: Mitogen-activated protein kinase 1 (Homo sapiens, UniProt P28482)
Sequence (P28482 whole entry): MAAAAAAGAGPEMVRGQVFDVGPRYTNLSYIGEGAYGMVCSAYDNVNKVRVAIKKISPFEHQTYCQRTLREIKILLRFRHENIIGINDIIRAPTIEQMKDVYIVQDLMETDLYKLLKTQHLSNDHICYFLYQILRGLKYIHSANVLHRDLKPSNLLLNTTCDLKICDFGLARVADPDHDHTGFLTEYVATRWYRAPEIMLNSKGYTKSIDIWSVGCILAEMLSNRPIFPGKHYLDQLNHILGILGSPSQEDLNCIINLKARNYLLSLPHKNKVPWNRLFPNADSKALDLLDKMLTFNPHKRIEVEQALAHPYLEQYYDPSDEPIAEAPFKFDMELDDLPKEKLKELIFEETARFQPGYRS
Assay: DRUGMATRIX: Protein Serine/Threonine Kinase, ERK2 enzyme inhibition (substrate: Myelin Basic Protein)
Parameters: species or system Escherichia coli
Details: Not Active = under 50% inhibition at 10 µM; read-out: IC50
pIC50: −log10 of the molar value.
recorded metric: pIC50

compound	recorded metric	quantitative result
O=C(OC[C@H]1O[C@@H](OC(=O)c2cc(O)c(O)c(OC(=O)c3cc(O)c(O)c(O)c3)c2)[C@H](OC(=O)c2cc(O)c(O)c(OC(=O)c3cc(O)c(O)c(O)c3)c2)[C@@H](OC(=O)c2cc(O)c(O)c(OC(=O)c3cc(O)c(O)c(O)c3)c2)[C@@H]1OC(=O)c1cc(O)c(O)c(OC(=O)c2cc(O)c(O)c(O)c2)c1)c1cc(O)c(O)c(OC(=O)c2cc(O)c(O)c(O)c2)c1 [TANNIC ACID]	pIC50	6.73
O=C(Nc1ccc(Cl)c(Cl)c1)c1cc(Cl)cc(Cl)c1O [3,3',4',5-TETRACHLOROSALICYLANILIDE]	pIC50	6.05

====

Target: Cytochrome P450 2D6 (Homo sapiens, UniProt P10635); also: in other assays of this panel Not Active means under 50% inhibition at 10 µM
Sequence (P10635 whole entry): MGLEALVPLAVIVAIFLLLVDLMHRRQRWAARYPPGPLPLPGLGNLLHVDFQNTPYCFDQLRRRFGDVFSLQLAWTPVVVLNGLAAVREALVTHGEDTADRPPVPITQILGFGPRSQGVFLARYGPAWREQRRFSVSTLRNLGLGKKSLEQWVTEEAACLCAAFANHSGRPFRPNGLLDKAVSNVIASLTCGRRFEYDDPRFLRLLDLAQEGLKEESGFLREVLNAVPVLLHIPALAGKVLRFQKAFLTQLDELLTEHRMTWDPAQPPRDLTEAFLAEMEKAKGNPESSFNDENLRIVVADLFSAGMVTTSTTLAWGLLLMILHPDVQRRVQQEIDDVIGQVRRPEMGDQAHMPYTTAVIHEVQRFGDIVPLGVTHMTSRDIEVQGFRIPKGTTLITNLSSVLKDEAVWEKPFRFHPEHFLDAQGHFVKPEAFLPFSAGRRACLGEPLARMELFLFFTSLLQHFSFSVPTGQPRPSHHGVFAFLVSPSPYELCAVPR
Conditions: bti-tn-5b1-4

molecule	IC50
CCN1CCCC1CNC(=O)c1cc(S(N)(=O)=O)ccc1OC (stereo not drawn) [SULPIRIDE]	Not Active
O=C(O)COC(=O)Cc1ccccc1Nc1c(Cl)cccc1Cl	Not Active
ClC1=C(Cl)[C@]2(Cl)[C@@H]3[C@@H]4C[C@@H]([C@H]5O[C@@H]45)[C@@H]3[C@@]1(Cl)C2(Cl)Cl	Not Active
Cc1ccc(Cl)c(Nc2ccccc2C(=O)O)c1Cl	Not Active
CC(Cl)(Cl)Cl	Not Active
Nc1ccc(C(=O)O)c(O)c1	Not Active
CCC1(c2ccccc2)C(=O)NC(=O)NC1=O	Not Active
CN(C)CCC=C1c2ccccc2COc2ccccc21 [DOXEPIN]	Not Active
O=[As][O-].[Na+] [SODIUM ARSENITE]	Not Active
CC[C@H](C)C(=O)O[C@H]1CCC=C2C=C[C@H](C)[C@H](CC[C@@H]3C[C@@H](O)CC(=O)O3)[C@H]21	Not Active
CC[C@H]1OC(=O)[C@H](C)[C@@H](O[C@H]2C[C@@](C)(OC)[C@@H](O)[C@H](C)O2)[C@H](C)[C@@H](O[C@@H]2O[C@H](C)C[C@H](N(C)C)[C@H]2O)[C@](C)(O)C[C@@H](C)C(=O)[C@H](C)[C@@H](O)[C@]1(C)O	Not Active
O=C(OC[C@H]1O[C@@H](OC(=O)c2cc(O)c(O)c(OC(=O)c3cc(O)c(O)c(O)c3)c2)[C@H](OC(=O)c2cc(O)c(O)c(OC(=O)c3cc(O)c(O)c(O)c3)c2)[C@@H](OC(=O)c2cc(O)c(O)c(OC(=O)c3cc(O)c(O)c(O)c3)c2)[C@@H]1OC(=O)c1cc(O)c(O)c(OC(=O)c2cc(O)c(O)c(O)c2)c1)c1cc(O)c(O)c(OC(=O)c2cc(O)c(O)c(O)c2)c1	Not Active
CO[C@@H]1[C@@H](OC)[C@H](C)[C@@](O)(CC(=O)O)O[C@H]1[C@H](C)[C@H]1O[C@@]2(CC[C@@](C)([C@H]3CC[C@@](C)([C@@H]4O[C@@H]([C@H]5O[C@](C)(O)[C@H](C)C[C@@H]5C)C[C@@H]4O[C@@H]4C[C@H](OC)[C@@H](OC)[C@H](C)O4)O3)O2)C[C@H](O)[C@H]1C.N	Not Active
CC(C)Cc1ccc([C@H](C)C(=O)O)cc1	Not Active
O=C(O)c1ccccc1	Not Active
Oc1ncnc2[nH]ncc12	Not Active
CC12CCC(CC1)C(C)(C)O2	Not Active
COc1ccc(C[C@H](N)C(=O)N[C@H]2[C@@H](O)[C@H](n3cnc4c(N(C)C)ncnc43)O[C@@H]2CO)cc1	Not Active
C[C@]12CCC(=O)C[C@@H]1CC[C@@H]1[C@@H]2CC[C@]2(C)[C@@H](O)CC[C@@H]12	Not Active
O=C(c1ccccc1)c1ccc2n1CCC2C(=O)O (stereo not drawn)	Not Active
OC[C@@H](O)[C@@H](O)[C@H](O)[C@H](O)CO	Not Active
OC[C@H]1O[C@@H]2O[C@H]3[C@H](O)[C@@H](O)[C@@H](O[C@H]4[C@H](O)[C@@H](O)[C@@H](O[C@H]5[C@H](O)[C@@H](O)[C@@H](O[C@H]6[C@H](O)[C@@H](O)[C@@H](O[C@H]7[C@H](O)[C@@H](O)[C@@H](O[C@H]8[C@H](O)[C@@H](O)[C@@H](O[C@H]1[C@H](O)[C@H]2O)O[C@@H]8CO)O[C@@H]7CO)O[C@@H]6CO)O[C@@H]5CO)O[C@@H]4CO)O[C@@H]3CO	Not Active
Nc1ccc(Cc2ccc(N)cc2)cc1	Not Active
C#C[C@]1(O)CC[C@H]2[C@@H]3[C@H](C)CC4=C(CCC(=O)C4)[C@H]3CC[C@@]21C	Not Active
CC1=C(/C=C/C(C)=C/C=C/C(C)=C/C(=O)O)C(C)(C)CCC1	Not Active
COc1cc(/C=C/C(=O)O)ccc1O [FERULATE]	Not Active
NCC(CC(=O)O)c1ccc(Cl)cc1 (stereo not drawn)	Not Active
CN(CCOc1ccc(C[C@H](Nc2ccccc2C(=O)c2ccccc2)C(=O)O)cc1)c1ccccn1	Not Active
